study_target: Human PDE4D (Homo sapiens (Human), UniProt Q08499)
Sequence (Q08499 186-808): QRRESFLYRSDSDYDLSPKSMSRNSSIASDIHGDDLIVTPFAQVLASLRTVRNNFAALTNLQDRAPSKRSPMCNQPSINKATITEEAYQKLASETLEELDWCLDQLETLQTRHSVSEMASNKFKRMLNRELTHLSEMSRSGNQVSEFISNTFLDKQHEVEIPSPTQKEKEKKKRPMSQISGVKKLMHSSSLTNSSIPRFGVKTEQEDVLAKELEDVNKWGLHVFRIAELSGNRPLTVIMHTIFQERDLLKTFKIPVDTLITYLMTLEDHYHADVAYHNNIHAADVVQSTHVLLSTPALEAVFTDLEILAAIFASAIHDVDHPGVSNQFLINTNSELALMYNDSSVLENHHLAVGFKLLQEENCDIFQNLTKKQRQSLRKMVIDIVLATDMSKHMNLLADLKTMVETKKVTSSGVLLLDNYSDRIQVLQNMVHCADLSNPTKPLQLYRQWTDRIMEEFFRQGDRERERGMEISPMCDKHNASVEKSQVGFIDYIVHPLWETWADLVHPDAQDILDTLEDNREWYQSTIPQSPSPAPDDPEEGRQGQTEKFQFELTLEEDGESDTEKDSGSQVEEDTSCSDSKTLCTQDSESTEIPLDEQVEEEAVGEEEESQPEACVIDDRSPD
assay_explanation: PDE4D Scintillation Proximity Assay (SPA), inhibition of enzyme activity
Format: biochemical
test_context: human recombinant enzyme, 1 μM cAMP substrate, 30 min at 25° C., geometric mean of 2-9 determinations unless otherwise indicated, read-out: Human PDE4D FL
readout_type: pIC50
Give bare numbers, as −log10 of the molar value.

Example entries begin here.
| chemical_string | pIC50 |
| --- | --- |
| O=C(NC1CC1)c1nc2cccnn2c1-c1cc(F)cc(Cl)c1 | 5.91 |
| O=C(NC1CC1)c1nc2cccnn2c1-c1cc(F)c(Cl)c(F)c1 | 6.84 |
| O=C(c1nc2cccnn2c1-c1cnc2ccnn2c1)N1CCC1 | 4.98 |
| O=C(NC1CC1)c1nc2cccnn2c1-c1cnc2ccnn2c1 | 5.19 |

Now for a further compound.
Request: Would you kindly share the measured pIC50 for `O=C(N[C@@H]1C[C@@H]1F)c1nc2cccnn2c1-c1cncc(Cl)c1` ?
Result: 5.48
